Reference for the values: patent US20190359693A1

# VNA titer listing for each entry below
study.target: HA of B/Florida/04/2006 (Yamagata) (influenza B virus)
assay.name: cell-based or functional assay

| binder | VNA titer |
| --- | --- |
| SD2086 (VHH) VHH: EVQLVESGGGLVQAGGSLRLSCATSGQTFSSYAMGWFRQAPGKEREFVAAISWNGGSTYYADSVKGRFTISRESPENLVYLQMNSLKPEDTAVYYCAARGAYYTGSYYLGSTYDYWGQGTQVTVSS | 815 nM |
| SD1087 (VHH) VHH: EVQLVESGGGLVQPGGSLRLSCVISGLSLDTYAVGWFRQAPGKEREGITCISSGHGMTYYADSVKGRFTVSTDNAKNTVYLQMNGLQPEDTARYYCATESRYYCSDNWPAPQRYIYWGQGTQVTVSS | > 1000 nM |
| SD1085 (VHH) VHH: EVQLVESGGGLVQAGDSLRLSCVISGLSLDTYAVGWFRQAPGKEREGITCISSGHGMTYYADSVKGRFTVSTDNAKNTVYLQMNGLQPEDTARYYCATESRYYCSDNWPAPQRYIYWGQGTQVTVSS | 187 nM |
| SD1045 (VHH) VHH: EVQLVESGGGLVQAGGSLRLSCAASGSSFSINVMGWYRQAPGKQREMVATITYGGSTNYVDSVKGRFTISRDNAKNTVYLQMNSLKPEDTAVYYCNSRLAQINYWGQGTQVTVSS | > 1000 nM |
| SD1070 (VHH) VHH: EVQLVESGGGLVQAGGSLRISCAASGRTFSIYSMGWFRQAPGKEREFVATIGWNSGRTFYADSMKERFTISADNARNTLYLQMNSLKFEDTAVYYCAAAKGPLRLSSQADYWGQGTQVTVSS | > 1000 nM |
| SD1048 (VHH) VHH: EVQLVESGGGVVQPGGSLRLSCVASGRTSSMYSIGWFRQAPGKEREFVAVIGWYSGRTFYTDSMKGRFTISRDNARNTVYLQMNSLKPEDTAVYYCAAANGPLRLSNQADYWGQGTQVTVSS | > 1000 nM |
